# Tested Target: acetylcholinesterase from Electrophorus electricus (electric eel) (Electrophorus electricus, UniProt O42275)
# Construct: purchased Sigma-Aldrich C2888
# Sequence (O42275 24-633): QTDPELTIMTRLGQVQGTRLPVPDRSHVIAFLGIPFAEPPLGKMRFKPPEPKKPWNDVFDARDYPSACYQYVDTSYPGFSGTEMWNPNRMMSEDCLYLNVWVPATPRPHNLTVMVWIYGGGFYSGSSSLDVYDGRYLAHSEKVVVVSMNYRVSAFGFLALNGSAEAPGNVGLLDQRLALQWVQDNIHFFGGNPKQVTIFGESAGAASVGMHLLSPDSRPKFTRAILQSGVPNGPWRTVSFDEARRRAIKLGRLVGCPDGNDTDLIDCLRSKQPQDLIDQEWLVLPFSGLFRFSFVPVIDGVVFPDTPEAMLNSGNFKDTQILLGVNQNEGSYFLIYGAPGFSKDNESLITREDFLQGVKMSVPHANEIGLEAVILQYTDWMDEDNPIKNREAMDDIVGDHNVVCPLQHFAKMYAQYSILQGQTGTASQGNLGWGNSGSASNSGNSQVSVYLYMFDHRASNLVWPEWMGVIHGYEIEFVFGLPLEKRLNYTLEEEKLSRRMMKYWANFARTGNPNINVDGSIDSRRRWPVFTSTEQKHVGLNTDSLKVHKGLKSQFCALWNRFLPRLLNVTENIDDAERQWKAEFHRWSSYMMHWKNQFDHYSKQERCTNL
# Assay Procedure: biochemical
# Setup Conditions: individual flavonoids; mean ± SD of three experiments; read-out: Anti-acetylcholinesterase activity, IC50
pIC50: −log10 of the molar value.
Let's look at some molecules and their measured pIC50.
Measurement Kind: pIC50

COc1cc(-c2oc3cc(O)cc(O)c3c(=O)c2OC2OC(CO)C(O)C(O)C2OC(C)=O)ccc1O (centres unmarked) [Isorhamnetin 3-O-(2″-Ac)-Glcp, isorhamnetin-3-O-(2′′-acetyl)-glucoside]    4.15
COc1cc(-c2oc3cc(O)cc(O)c3c(=O)c2OC2OC(COC3OC(C)C(O)C(O)C3O)C(O)C(O)C2OC2OC(C)C(O)C(O)C2O)ccc1O (centres unmarked)    4.01
COc1cc(-c2oc3cc(O)cc(O)c3c(=O)c2OC2OC(COC(C)=O)C(O)C(O)C2OC(C)=O)ccc1O (centres unmarked)    4.29
COc1cc(-c2oc3cc(O)cc(O)c3c(=O)c2OC2OC(CO)C(O)C(O)C2OC2OC(C)C(O)C(O)C2O)ccc1O (centres unmarked)    4.03
CC1OC(OC2C(Oc3c(-c4ccc(O)c(O)c4)oc4cc(O)cc(O)c4c3=O)OC(C)C(O)C(O)C2O)C(O)C(O)C1O (centres unmarked)    4.17

---

# Tested Target: acetylcholinesterase from Electrophorus electricus (electric eel) (Electrophorus electricus)
# Construct: purchased Sigma-Aldrich C2888
# Assay Procedure: biochemical
# Setup Conditions: individual flavonoids; mean ± SD of three experiments; read-out: Anti-acetylcholinesterase activity, IC50
Measured IC50, listed per entry.
Measurement Kind: IC50 (µM)

COc1cc(-c2oc3cc(O)cc(O)c3c(=O)c2OC2OC(COC(C)=O)C(O)C(O)C2O)ccc1O (stereo not shown) [Isorhamnetin 3-O-(6″-Ac)-Glcp, isorhamnetin-3-O-(6′′-acetyl)-glucoside]    68.2
COc1cc(-c2oc3cc(O)cc(O)c3c(=O)c2OC2OC(C)C(O)C(O)C2O)ccc1O (stereo not shown) [Isorhamnetin 3-O-Rhap, isorhamnetin-3-O-rhamnoside]    74
CC1OC(OC2C(O)C(CO)OC(Oc3c(-c4ccc(O)c(O)c4)oc4cc(O)cc(O)c4c3=O)C2O)C(O)C(O)C1O (stereo not shown) [Quercetin 3-O-(3″-Rhap)-Glcp, quercetin-3-O-(3′′-rhamnosyl)-glucoside]    69.1
CC1OC(OCC2OC(Oc3c(-c4ccc(O)c(O)c4)oc4cc(O)cc(O)c4c3=O)C(OC3OC(C)C(O)C(O)C3O)C(O)C2O)C(O)C(O)C1O (stereo not shown) [Quercetin 3-O-(2″,6″-di-Rhap)-Glcp]    94.9
COc1cc(-c2oc3cc(O)cc(O)c3c(=O)c2OC2OC(CO)C(O)C(OC3OC(C)C(O)C(O)C3O)C2O)ccc1O (stereo not shown) [Isorhamnetin 3-O-(3″-Rhap)-Glcp]    91.2
COc1cc(-c2oc3cc(O)cc(O)c3c(=O)c2OC2OC(CO)C(O)C(O)C2O)ccc1O (stereo not shown) [Isorhamnetin 3-O-Glcp, isorhamnetin-3-O-glucoside]    89
COc1cc(-c2oc3cc(O)cc(O)c3c(=O)c2OC2OC(CO)C(OC3OC(C)C(O)C(O)C3O)C(O)C2O)ccc1O (stereo not shown) [Isorhamnetin 3-O-(4″-Rhap)-Glcp]    92.1
CC(=O)OC1C(Oc2c(-c3ccc(O)c(O)c3)oc3cc(O)cc(O)c3c2=O)OC(CO)C(O)C1O (stereo not shown) [Quercetin 3-O-(2″-Ac)-Glcp, quercetin-3-O-(2′′-acetyl)-glucoside]    48
COc1cc(-c2oc3cc(O)cc(O)c3c(=O)c2O[C@@H]2O[C@H](CO[C@@H]3O[C@@H](C)[C@H](O)[C@@H](O)[C@H]3O)[C@@H](O)[C@H](O)[C@H]2O)ccc1O [Isorhamnetin 3-O-(6″-Rhap)-Glcp, isorhamnetin-3-O-rutinoside]    97.3
CC1OC(OC2C(Oc3c(-c4ccc(O)c(O)c4)oc4cc(O)cc(O)c4c3=O)OC(CO)C(O)C2O)C(O)C(O)C1O (stereo not shown) [Quercetin 3-O-(2″-Rhap)-Glcp, quercetin-3-O-(2′′-rhamnosyl)-glucoside]    71.9

---

// reported pIC50 for each item listed
# Tested Target: acetylcholinesterase from Electrophorus electricus (electric eel) (Electrophorus electricus)
# Construct: purchased Sigma-Aldrich C2888
# Assay Procedure: biochemical
# Setup Conditions: Anti-acetylcholinesterase activity, IC50, individual flavonoids; mean ± SD of three experiments
pIC50: −log10 of the molar value.
Measurement Kind: pIC50

CC1OC(Oc2c(-c3ccc(O)c(O)c3)oc3cc(O)cc(O)c3c2=O)C(O)C(O)C1O (centres unmarked) [Quercetin 3-O-Rhap, quercetin-3-O-rhamnoside]    4.31
O=c1c(O[C@@H]2O[C@H](CO)[C@@H](O)[C@H](O)[C@H]2O)c(-c2ccc(O)c(O)c2)oc2cc(O)cc(O)c12 [Quercetin 3-O-Glcp, quercetin-3-O-glucoside]    4.15
C[C@@H]1O[C@@H](OC[C@H]2O[C@@H](Oc3c(-c4ccc(O)c(O)c4)oc4cc(O)cc(O)c4c3=O)[C@H](O)[C@@H](O)[C@@H]2O)[C@H](O)[C@H](O)[C@H]1O [Quercetin 3-O-(6″-Rhap)-Glcp, quercetin-3-O-rutinoside]    4.14
COc1cc(-c2oc3cc(O)cc(O)c3c(=O)c2O)ccc1O [Isorhamnetin, 3,5,7,4′-tetrahydroxy-3′-methoxyflavone]    4.62
CN(C)C(=O)Oc1cccc([N+](C)(C)C)c1 [neostigmine, neostigmine bromide, reference compound]    5.47

---

// reported IC50 per item
# Tested Target: acetylcholinesterase from Electrophorus electricus (electric eel) (Electrophorus electricus, UniProt O42275)
# Construct: purchased Sigma-Aldrich C2888
# Assay Procedure: biochemical
# Setup Conditions: individual flavonoids; mean ± SD of three experiments; read-out: Anti-acetylcholinesterase activity, IC50
Measurement Kind: IC50 (µM)

CC1OC(OC2C(CO)OC(Oc3c(-c4ccc(O)c(O)c4)oc4cc(O)cc(O)c4c3=O)C(O)C2O)C(O)C(O)C1O (stereo not drawn) [Quercetin 3-O-(4″-Rhap)-Glcp, quercetin-3-O-(4′′-rhamnosyl)-glucoside]    70.3
CC(=O)OCC1OC(Oc2c(-c3ccc(O)c(O)c3)oc3cc(O)cc(O)c3c2=O)C(O)C(O)C1O (stereo not drawn) [Quercetin 3-O-(6″-Ac)-Glcp, quercetin-3-O-(6′′-acetyl)-glucoside]    45.2
CC(=O)OCC1OC(Oc2c(-c3ccc(O)c(O)c3)oc3cc(O)cc(O)c3c2=O)C(OC(C)=O)C(O)C1O (stereo not drawn)    36.5

---

# Tested Target: acetylcholinesterase from Electrophorus electricus (electric eel) (Electrophorus electricus, UniProt O42275)
# Construct: purchased Sigma-Aldrich C2888
# Assay Procedure: biochemical
# Setup Conditions: AChA, IC50 (anti-acetylcholinesterase activity), total extracts of C. officinalis flowers; mean ± SD of five experiments
Measurement Kind: IC50 (µM)

CN(C)C(=O)Oc1cccc([N+](C)(C)C)c1 [neostigmine, neostigmine bromide, reference compound]    3.36
